Target: DHX33 protein (Mus musculus)
Construct: 0.25 μg of purified full-length DHX33 protein
Sequence (Q80VY9 whole entry): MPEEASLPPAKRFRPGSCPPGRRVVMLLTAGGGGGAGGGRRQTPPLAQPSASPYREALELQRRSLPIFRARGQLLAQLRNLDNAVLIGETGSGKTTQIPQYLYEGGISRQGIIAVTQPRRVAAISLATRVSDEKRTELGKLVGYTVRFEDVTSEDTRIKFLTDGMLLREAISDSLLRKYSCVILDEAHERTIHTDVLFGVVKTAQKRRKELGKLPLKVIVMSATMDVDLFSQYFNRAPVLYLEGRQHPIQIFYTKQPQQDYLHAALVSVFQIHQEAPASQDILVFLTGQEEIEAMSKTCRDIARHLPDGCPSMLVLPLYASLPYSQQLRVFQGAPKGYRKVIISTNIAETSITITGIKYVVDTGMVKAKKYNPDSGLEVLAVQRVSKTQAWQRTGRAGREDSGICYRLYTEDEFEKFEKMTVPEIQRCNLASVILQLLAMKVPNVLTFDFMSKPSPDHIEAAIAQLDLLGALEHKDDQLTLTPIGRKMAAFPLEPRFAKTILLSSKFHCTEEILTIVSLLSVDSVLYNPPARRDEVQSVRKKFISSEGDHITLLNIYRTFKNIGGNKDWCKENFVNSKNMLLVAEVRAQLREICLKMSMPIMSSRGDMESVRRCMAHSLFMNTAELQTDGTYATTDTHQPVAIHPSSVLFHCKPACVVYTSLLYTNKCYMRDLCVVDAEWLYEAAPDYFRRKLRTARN
Test: Inhibition of the helicase activity of DHX33 protein in vitro
Conditions: recombinant DHX33 protein, compound 1-1000 nM, 37° C. 60 minutes; read-out: IC50, inhibitory effects of the compounds on the helicase activity of DHX33 protein
IC50 for assorted molecules

MOLECULE: Cc1oc(-n2c(C)cc(/C=C(\C#N)c3nc4ccccc4[nH]3)c2C)c(C#N)c1C [Compound as control, reference compound]
IC50: ≥ 400 nM

MOLECULE: COc1cc2[nH]c(NC(=O)c3cc(C)n(-c4sc(C)cc4C#N)c3C)nc2cn1
IC50: < 20 nM

MOLECULE: Cc1cc(C#N)c(-n2c(C)cc(C(=O)Nc3nc4ccc(F)cc4[nH]3)c2C)s1
IC50: 20 to 100 nM

MOLECULE: COc1cccc2nc(NC(=O)c3cc(C)n(-c4sc(C)cc4C#N)c3C)[nH]c12
IC50: ≥ 400 nM
